- tested_target: Receptor tyrosine-protein kinase erbB-4 (Homo sapiens, UniProt Q15303)
- Sequence (Q15303 whole entry): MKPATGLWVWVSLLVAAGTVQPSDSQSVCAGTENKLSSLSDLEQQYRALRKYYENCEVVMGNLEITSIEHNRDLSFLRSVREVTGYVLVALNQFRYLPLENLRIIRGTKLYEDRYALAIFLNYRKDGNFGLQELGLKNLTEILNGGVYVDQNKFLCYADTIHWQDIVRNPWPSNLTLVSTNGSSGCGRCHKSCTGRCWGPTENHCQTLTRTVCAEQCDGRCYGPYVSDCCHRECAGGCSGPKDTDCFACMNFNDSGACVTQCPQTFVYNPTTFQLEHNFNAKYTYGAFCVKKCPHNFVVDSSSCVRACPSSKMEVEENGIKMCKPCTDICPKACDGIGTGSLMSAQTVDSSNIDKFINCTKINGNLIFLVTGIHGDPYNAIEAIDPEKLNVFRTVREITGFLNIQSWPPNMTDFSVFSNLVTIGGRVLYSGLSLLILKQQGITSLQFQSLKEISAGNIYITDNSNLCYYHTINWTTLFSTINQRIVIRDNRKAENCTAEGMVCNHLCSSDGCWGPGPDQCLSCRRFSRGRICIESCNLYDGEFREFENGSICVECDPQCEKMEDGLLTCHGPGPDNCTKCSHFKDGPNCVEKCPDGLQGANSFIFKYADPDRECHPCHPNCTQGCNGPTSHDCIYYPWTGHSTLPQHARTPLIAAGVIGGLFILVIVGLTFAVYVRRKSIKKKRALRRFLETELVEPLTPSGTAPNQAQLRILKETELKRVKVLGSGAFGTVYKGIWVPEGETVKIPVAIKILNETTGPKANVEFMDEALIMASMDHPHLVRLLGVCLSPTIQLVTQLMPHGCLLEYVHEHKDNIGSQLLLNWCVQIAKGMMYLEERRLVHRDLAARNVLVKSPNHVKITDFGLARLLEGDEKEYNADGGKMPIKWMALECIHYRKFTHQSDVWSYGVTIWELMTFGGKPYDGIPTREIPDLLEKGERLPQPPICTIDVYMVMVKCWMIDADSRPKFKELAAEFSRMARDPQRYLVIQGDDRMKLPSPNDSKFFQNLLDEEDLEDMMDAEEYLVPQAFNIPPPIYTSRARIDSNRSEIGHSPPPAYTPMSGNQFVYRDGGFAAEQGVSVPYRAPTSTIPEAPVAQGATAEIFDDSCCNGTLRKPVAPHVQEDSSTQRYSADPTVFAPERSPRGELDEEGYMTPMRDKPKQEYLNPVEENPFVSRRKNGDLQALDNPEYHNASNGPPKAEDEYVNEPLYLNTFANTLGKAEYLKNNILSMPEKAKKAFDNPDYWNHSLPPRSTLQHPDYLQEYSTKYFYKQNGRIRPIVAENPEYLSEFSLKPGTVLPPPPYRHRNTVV
pIC50: −log10 of the molar value.

# record_smiles, pIC50
records = [
    ("C=CC(=O)Nc1cccc(Nc2ncc(NC(=O)c3cc(NC(=O)c4cccc(C(F)(F)F)c4)ccc3C)cn2)c1", 8.26),
]

---

// reported clearance for each item listed
- protocol_description: Clearance in ICR mouse at 1 mg/kg, iv by LC-MS analysis
- Format: ADME, organism-based
- Design: dose 1 mg/kg, route intravenous
- particulars: in vivo
observable: clearance (mL/min/kg)

# record_smiles, observable, value
rows = [
    ("C=CC(=O)NCC(=O)Nc1cccc(Nc2ncc(NC(=O)c3cc(NC(=O)c4cccc(C(F)(F)F)c4)ccc3C)cn2)c1", "clearance", 11.5),
    ("C=CC(=O)Nc1cccc(Nc2ncc(NC(=O)c3cc(NC(=O)c4cccc(C(F)(F)F)c4)ccc3C)cn2)c1", "clearance", 6.85),
]
